Measured IC50, listed per entry for reference.
# ASSAY SYSTEM: human sodium channels Nav 1.8 (Homo sapiens, UniProt Q9Y5Y9)
# Sequence (Q9Y5Y9 whole entry): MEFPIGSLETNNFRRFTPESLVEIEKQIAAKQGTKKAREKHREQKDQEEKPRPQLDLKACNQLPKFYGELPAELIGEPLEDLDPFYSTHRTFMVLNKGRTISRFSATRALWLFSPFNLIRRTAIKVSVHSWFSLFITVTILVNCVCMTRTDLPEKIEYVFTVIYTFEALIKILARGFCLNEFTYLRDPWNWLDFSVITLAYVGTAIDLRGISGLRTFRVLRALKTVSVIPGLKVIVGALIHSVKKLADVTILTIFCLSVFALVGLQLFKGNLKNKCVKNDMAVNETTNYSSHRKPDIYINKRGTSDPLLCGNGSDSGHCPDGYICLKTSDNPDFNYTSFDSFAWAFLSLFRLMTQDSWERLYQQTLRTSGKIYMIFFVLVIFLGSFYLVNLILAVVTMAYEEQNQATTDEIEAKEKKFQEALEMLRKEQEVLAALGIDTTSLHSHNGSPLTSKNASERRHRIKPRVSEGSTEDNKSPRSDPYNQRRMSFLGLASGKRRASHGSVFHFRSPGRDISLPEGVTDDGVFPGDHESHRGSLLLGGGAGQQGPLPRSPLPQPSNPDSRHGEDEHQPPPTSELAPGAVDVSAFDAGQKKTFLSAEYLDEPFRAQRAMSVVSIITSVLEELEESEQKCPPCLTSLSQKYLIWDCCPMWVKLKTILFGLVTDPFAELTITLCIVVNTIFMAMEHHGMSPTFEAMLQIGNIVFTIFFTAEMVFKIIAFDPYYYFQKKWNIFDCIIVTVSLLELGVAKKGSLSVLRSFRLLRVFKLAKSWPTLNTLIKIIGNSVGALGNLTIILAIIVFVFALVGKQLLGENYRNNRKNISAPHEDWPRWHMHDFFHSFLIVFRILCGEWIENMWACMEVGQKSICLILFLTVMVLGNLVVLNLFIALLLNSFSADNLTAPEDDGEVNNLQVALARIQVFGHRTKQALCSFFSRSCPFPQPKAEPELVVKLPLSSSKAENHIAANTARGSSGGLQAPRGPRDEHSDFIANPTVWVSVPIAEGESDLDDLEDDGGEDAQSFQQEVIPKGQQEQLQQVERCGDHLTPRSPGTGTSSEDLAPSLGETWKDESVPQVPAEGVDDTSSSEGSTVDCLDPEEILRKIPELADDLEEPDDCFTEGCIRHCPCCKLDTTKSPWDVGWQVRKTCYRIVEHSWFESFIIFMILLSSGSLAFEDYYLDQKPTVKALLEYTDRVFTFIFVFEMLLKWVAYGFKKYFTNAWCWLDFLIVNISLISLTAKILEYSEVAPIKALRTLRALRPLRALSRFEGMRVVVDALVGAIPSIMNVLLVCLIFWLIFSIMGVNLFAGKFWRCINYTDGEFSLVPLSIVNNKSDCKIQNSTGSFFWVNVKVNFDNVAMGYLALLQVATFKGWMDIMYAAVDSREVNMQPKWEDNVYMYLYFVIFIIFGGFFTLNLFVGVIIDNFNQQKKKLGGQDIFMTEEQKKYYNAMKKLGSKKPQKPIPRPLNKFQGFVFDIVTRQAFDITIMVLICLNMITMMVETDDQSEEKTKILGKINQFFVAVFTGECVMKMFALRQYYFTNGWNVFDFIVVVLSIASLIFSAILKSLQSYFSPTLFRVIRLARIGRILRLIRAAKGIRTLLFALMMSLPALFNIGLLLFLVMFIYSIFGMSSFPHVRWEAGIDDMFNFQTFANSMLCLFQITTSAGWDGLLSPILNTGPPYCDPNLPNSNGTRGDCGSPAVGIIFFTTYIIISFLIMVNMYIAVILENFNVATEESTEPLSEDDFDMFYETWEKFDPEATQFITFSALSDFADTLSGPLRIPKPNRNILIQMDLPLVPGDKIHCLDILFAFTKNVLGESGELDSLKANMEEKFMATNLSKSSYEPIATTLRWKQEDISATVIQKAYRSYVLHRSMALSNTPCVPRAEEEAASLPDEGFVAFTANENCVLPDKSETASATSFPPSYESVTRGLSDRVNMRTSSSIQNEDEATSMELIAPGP
# ASSAY SUMMARY: Automated whole-cell voltage-clamp (ScreenPatch 384P) sodium current block, Nav 1.8
# MEASUREMENT SETUP: CHO cells stably expressing human Nav 1.8; holding -100 mV, inactivation step -40 mV for 8 seconds, test step 10 mV (TP1A); exposure at least five minutes, room temperature; mean where tested in two or more assays; read-out: Nav1.8 IC50

Below, 7 molecules whose answers are already recorded.
[[record]]
smi = "CCOc1ccc(-c2cc(C(=O)NCCc3cc(OC)cnc3F)ccn2)cc1"
assay_system = "human sodium channels Nav 1.8 (Homo sapiens, UniProt Q9Y5Y9)"
result = "> 1000 nM"

[[record]]
smi = "CCOc1ccc(-c2cncc(C(=O)N[C@@H]3Cc4c(OC)cnc(F)c4C3)n2)cn1"
assay_system = "human sodium channels Nav 1.8 (Homo sapiens, UniProt Q9Y5Y9)"
result = "< 500 nM"

[[record]]
smi = "CCOc1ccc(-c2cncc(C(=O)Nc3nc4c(F)ccc(OC)c4o3)n2)cn1"
assay_system = "human sodium channels Nav 1.8 (Homo sapiens, UniProt Q9Y5Y9)"
result = "> 1000 nM"

[[record]]
smi = "CCOc1ccc(-c2cncc(C(=O)N[C@@H]3CCc4c(OC)ccc(F)c4C3)n2)cn1"
assay_system = "human sodium channels Nav 1.8 (Homo sapiens, UniProt Q9Y5Y9)"
result = "500 to 1000 nM"

[[record]]
smi = "[2H]C([2H])([2H])Oc1cc(OC([2H])([2H])[2H])cc([C@H](O)CNC(=O)c2cncc(-c3ccc(OC(F)F)cc3)n2)c1"
assay_system = "human sodium channels Nav 1.8 (Homo sapiens, UniProt Q9Y5Y9)"
result = "< 500 nM"

[[record]]
smi = "CCOc1ccc(-c2cncc(C(=O)NCc3ccc4ccc(OC)cn34)n2)cn1"
assay_system = "human sodium channels Nav 1.8 (Homo sapiens, UniProt Q9Y5Y9)"
result = "< 500 nM"

[[record]]
smi = "CCOc1ccc(-c2cncc(C(=O)Nc3cc4c(F)ccc(OC)c4n3C)n2)cn1"
assay_system = "human sodium channels Nav 1.8 (Homo sapiens, UniProt Q9Y5Y9)"
result = "> 1000 nM"


# input for lookup
Find IC50 (human sodium channels Nav 1.8 (Homo sapiens, UniProt Q9Y5Y9)) for the entry [2H]C([2H])([2H])Oc1ccc(-c2cncc(C(=O)NCCc3cc(OC)cnc3F)n2)cc1
< 500 nM

* * *

# ASSAY SYSTEM: UniProt:Q15858
# Sequence (Q15858 whole entry): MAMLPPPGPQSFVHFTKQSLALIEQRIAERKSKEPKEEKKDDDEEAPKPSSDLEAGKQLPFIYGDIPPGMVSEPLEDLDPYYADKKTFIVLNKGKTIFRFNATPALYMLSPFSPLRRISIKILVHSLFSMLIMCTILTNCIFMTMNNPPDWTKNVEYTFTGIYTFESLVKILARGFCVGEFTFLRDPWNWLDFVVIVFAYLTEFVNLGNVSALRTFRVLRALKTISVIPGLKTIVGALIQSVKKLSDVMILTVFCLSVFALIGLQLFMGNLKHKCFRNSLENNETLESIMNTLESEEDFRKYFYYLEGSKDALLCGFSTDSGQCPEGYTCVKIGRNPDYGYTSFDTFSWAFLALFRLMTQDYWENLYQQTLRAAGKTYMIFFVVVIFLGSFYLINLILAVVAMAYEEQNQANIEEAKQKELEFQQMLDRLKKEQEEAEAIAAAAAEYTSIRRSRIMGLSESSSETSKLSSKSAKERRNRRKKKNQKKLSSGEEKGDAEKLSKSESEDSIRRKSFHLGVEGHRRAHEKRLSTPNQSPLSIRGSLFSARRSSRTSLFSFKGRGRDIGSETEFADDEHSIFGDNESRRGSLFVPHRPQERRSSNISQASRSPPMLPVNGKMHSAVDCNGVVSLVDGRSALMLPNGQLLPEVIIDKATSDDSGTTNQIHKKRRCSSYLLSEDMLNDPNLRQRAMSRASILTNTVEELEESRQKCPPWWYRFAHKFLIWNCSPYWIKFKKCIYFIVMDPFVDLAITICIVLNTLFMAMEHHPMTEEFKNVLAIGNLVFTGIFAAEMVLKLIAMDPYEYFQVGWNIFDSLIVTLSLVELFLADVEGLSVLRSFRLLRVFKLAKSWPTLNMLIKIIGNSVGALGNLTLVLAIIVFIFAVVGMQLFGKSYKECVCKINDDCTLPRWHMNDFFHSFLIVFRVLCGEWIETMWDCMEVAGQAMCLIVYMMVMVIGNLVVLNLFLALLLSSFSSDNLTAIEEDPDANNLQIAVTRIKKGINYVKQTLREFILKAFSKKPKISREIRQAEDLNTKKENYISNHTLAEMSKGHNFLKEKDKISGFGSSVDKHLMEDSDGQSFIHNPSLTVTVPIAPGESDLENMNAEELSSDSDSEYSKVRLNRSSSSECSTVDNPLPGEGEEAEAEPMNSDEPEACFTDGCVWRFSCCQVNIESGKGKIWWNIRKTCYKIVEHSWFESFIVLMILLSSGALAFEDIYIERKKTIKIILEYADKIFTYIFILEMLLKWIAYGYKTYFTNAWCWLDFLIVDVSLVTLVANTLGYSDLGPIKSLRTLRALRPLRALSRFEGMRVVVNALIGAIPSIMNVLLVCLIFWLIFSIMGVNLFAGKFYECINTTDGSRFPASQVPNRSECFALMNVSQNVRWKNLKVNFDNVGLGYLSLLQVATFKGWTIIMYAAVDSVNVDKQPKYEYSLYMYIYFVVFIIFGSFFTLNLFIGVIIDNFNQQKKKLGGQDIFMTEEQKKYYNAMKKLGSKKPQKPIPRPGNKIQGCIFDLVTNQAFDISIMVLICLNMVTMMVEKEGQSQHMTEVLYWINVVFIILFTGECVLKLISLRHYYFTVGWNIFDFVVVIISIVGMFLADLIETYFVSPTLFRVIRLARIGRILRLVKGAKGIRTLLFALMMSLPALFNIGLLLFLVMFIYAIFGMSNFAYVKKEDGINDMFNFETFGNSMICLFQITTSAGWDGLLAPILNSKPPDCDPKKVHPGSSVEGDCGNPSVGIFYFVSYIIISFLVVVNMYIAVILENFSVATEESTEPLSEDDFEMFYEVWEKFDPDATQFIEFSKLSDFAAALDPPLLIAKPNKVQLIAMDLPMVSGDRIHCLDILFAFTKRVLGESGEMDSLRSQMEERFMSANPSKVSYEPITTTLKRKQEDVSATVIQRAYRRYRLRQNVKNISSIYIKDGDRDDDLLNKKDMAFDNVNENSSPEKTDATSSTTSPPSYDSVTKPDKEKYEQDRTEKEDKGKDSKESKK
# ASSAY SUMMARY: Automated whole-cell voltage-clamp (ScreenPatch 384P) sodium current block, Nav 1.7
# MEASUREMENT SETUP: CHO cells stably expressing human Nav 1.7; holding -100 mV, inactivation step -40 mV for 8 seconds, test step 0 mV (TP1A); exposure at least five minutes, room temperature; mean where tested in two or more assays; read-out: Nav1.7 IC50
ENDPOINT: IC50

[[record]]
smi = "CCOc1ccc(-c2ccnc(C(=O)NCCc3cc(OC)cnc3F)n2)cn1"
result = "> 1000 nM"


# get_value(readout='IC50', item= [2H]C([2H])([2H])Oc1ccc(-c2cncc(C(=O)NCCc3cc(OC)cc(OC)c3)n2)cc1 )
> 1000 nM

Same question, CCOc1ccc(-c2cncc(C(=O)NCCc3cc(OC)cnc3F)c2)cn1 this time
> 1000 nM

Same question, CCOc1ccc(-c2cncc(C(=O)Nc3cn4c(F)ccc(OC)c4n3)n2)cn1 this time
> 1000 nM

Same question, CCOc1ccc(-c2cncc(C(=O)NC[C@H](C)c3cc(OC)cc(OC)c3)n2)cc1 this time
> 1000 nM

Same question, CCOc1ccc(-c2cc(C(=O)NCCc3cc(OC)cnc3F)ccn2)cn1 this time
> 1000 nM
